system under test: recombinant human CK2 (RRββ-holoenzyme) (Homo sapiens, UniProt P68400)
Sequence (P68400 whole entry): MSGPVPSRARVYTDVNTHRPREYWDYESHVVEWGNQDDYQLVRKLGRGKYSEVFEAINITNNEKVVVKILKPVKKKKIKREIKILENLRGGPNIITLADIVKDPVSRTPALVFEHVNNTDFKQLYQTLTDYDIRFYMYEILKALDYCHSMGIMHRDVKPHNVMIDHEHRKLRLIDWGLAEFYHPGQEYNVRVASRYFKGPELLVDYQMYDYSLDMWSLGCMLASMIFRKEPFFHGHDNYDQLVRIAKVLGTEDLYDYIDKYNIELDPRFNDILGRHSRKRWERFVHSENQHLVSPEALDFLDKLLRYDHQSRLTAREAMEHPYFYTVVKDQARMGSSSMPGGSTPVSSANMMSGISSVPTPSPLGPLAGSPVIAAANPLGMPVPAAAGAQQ
Sequence (P67870 whole entry partner): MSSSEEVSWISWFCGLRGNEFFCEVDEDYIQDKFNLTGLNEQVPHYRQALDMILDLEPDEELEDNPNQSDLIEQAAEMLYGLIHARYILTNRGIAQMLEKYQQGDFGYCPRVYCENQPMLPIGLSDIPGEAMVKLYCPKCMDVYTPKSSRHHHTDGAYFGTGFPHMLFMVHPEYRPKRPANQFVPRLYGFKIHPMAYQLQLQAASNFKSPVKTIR
test: CK2 Kinase Assay (33P-ATP, filter plate)
test conditions: recombinant human CK2, final ATP concentration 15 μM, 10 min at 30° C.; read-out: protein kinase CK2 IC50
measured property: IC50 (nM)

                             entry_smiles                         system_under_test  experimental_result
0  Clc1cccc(Nc2nc3cnccc3c3nn4cnccc4c23)c1  recombinant human CK2 (RRββ-holoenzyme) (Homo sapiens, UniProt P68400)                   47

###

Test system: HL60 (leukemia)
test: In vitro cytotoxic activity (MTT) assay, HL60
Format: cell-based
test conditions: Homo sapiens, HL-60; HL60 cells, exposed for 96 hours, 50% inhibition of cell proliferation; read-out: Cytotoxicity activity IC50, HL60 (leukemia)
measured property: IC50 (µM)

                                   compound  system_under_test  measured_property  experimental_result
0  Clc1cccc(Nc2nc3cnccc3c3nn4cnccc4c23)c1 [Compound 1]    HL60 (leukemia)               IC50                  4.4
